target: steroid 17α-hydroxylase and/or steroid C17-20 lyase (Rattus norvegicus); construct: the testis of rats (SD, male) was homogenized and centrifuged to obtain microsome; from tissue; host or cells: rat (SD, male) testis microsomes; test: Measurement of steroid 17α-hydroxylase and/or steroid C17-20 lyase inhibitory activity (rat testis microsome, HPLC); assay type: biochemical; conditions: Enzyme source: rat testis microsome; test compound 300 nM; substrate 25 μM 17α-hydroxyprogesterone; NADPH 500 μM; 20 minutes at 37° C.
Where a name gives a salt, the structure may show the parent alone.
Quantity: inhibition at 0.3 µM (%)

COc1ccc2c(-c3cccnc3)csc2c1 [Example 2, hydrochloride] :: 89
CC(C)Nc1ccc2c(-c3cccnc3)csc2c1 :: 98

P = O=[N+]([O-])c1cccc(-c2ccc3c(-c4cccnc4)csc3c2)c1
Q = COc1cccc(Oc2ccc3c(-c4cccnc4)csc3c2)c1 [Example 26, hydrochloride]
R = COc1ccc(-c2ccc3c(-c4cccnc4)csc3c2)cc1OC
S = COc1ccc(-c2ccc3c(-c4ccncc4)csc3c2)cc1
Could you please order the items by inhibition at 0.3 µM, going from the lowest number to the highest? # format: label list in the order the request specifies
Q, R, S, P
(Q: 1%, R: 30%, S: 60%, P: 86%)

----------
Quantity: melting point

Look over these answered cases.
COc1ccc2c(-c3ccccn3)csc2c1.Cl [Example 3] :: 205.5 to 207 °C (dec.)
c1cncc(-c2ccc3c(-c4cccnc4)csc3c2)c1 [Example 20] :: 131.5 to 133 °C
Oc1cccc(-c2ccc3c(-c4cccnc4)csc3c2)c1 [Example 17] :: 188.5 to 189.5 °C

If you can, please state the reported melting point value of Oc1ccc2c(-c3ccncc3)csc2c1 [Example 6, 3-(4-pyridyl)benzo[b]thiophen-6-ol] .
246 to 250 °C

----------
Target: steroid 17α-hydroxylase and/or steroid C17-20 lyase (Rattus norvegicus)
Construct: the testis of rats (SD, male) was homogenized and centrifuged to obtain microsome; from tissue; host or cells: rat (SD, male) testis microsomes
Sequence (P11715 1-507): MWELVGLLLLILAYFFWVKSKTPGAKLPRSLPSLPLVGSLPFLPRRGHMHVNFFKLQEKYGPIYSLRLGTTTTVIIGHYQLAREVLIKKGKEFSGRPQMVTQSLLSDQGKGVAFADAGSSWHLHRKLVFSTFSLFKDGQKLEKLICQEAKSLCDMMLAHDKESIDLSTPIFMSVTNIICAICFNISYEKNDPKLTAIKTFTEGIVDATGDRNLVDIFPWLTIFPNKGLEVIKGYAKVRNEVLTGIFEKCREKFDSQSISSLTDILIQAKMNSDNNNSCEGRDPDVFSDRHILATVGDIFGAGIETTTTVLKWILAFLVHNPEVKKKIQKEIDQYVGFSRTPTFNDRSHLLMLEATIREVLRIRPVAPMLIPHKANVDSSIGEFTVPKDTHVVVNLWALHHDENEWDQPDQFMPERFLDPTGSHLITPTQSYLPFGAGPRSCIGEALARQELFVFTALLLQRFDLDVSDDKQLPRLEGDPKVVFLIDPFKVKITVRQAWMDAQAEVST
Assay: Measurement of steroid 17α-hydroxylase and/or steroid C17-20 lyase inhibitory activity (rat testis microsome, HPLC)
Format: biochemical
Details: Enzyme source: rat testis microsome; test compound 300 nM; substrate 25 μM 17α-hydroxyprogesterone; NADPH 500 μM; 20 minutes at 37° C.
Where a name gives a salt, the structure may show the parent alone.
Quantity: inhibition at 0.3 µM (%)

Look over these answered cases.
CC(=O)c1ccccc1-c1ccc2c(-c3cccnc3)csc2c1 [Example 38, hydrochloride] :: 45
Oc1ccc(-c2ccc3c(-c4cccnc4)csc3c2)cc1O :: 73
Oc1ccc(-c2ccc3c(-c4cccnc4)csc3c2)cc1 :: 68

P = CCOc1ccc2c(-c3cccnc3)csc2c1 [Example 43, hydrochloride]
Q = CN(C)CCOc1ccc2c(-c3cccnc3)csc2c1 [Example 45, dimaleate]
R = Oc1ccc2c(-c3cccnc3)csc2c1 [Example 8, 3-(3-pyridyl)benzo[b]thiophen-6-ol]
Ranking field: inhibition at 0.3 µM; order: falling. # format: label list in the order the request specifies
P, R, Q
(P: 97%, R: 59%, Q: 33%)
